Source: patent US20240287154A1

Target: human MC3R (human, UniProt P41968 1-323)
Sequence (P41968 whole entry): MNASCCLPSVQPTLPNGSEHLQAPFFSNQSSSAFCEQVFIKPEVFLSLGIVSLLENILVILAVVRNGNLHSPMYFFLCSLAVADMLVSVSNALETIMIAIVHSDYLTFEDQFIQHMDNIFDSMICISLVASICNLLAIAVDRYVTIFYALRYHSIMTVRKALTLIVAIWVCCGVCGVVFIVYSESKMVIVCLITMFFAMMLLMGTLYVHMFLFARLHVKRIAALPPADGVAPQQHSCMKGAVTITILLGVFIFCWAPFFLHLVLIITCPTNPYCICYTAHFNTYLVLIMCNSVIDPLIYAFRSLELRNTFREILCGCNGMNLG
Assay: cell-based or functional assay
Non-standard residues stand in square brackets, D forms with d. PKcap1 = N-terminal cap C18 diacid-γGlu-mPEG2; Phe(4-I) = N[C@@H](Cc1ccc(I)cc1)C(=O)O; Nle = CCCC[C@H](N)C(=O)O; Aib = CC(C)(N)C(=O)O
Decide by MC3R selectivity (relative to MC4R): equal to or exceeding 30 means Fulfilled, less means Not fulfilled.

{"Binder": "Ac-[Nle][dA]HFK[dW]DRFG-OH (SMILES CCCC[C@H](NC(C)=O)C(=O)N[C@H](C)C(=O)N[C@@H](Cc1c[nH]cn1)C(=O)N[C@@H](Cc1ccccc1)C(=O)N[C@@H](CCCCN)C(=O)N[C@H](Cc1c[nH]c2ccccc12)C(=O)N[C@@H](CC(=O)O)C(=O)N[C@@H](CCCNC(=N)N)C(=O)N[C@@H](Cc1ccccc1)C(=O)NCC(=O)O) [CTX-1523]", "Class": "Fulfilled"}
{"Binder": "Ac-[Nle][dA]HFR[dW]DRPG-OH (SMILES CCCC[C@H](NC(C)=O)C(=O)N[C@H](C)C(=O)N[C@@H](Cc1c[nH]cn1)C(=O)N[C@@H](Cc1ccccc1)C(=O)N[C@@H](CCCNC(=N)N)C(=O)N[C@H](Cc1c[nH]c2ccccc12)C(=O)N[C@@H](CC(=O)O)C(=O)N[C@@H](CCCNC(=N)N)C(=O)N1CCC[C@H]1C(=O)NCC(=O)O) [CTX-1536]", "Class": "Fulfilled"}
{"Binder": "Ac-[Nle][dA]HFR[dW]F-NH2 (SMILES CCCC[C@H](NC(C)=O)C(=O)N[C@H](C)C(=O)N[C@@H](Cc1c[nH]cn1)C(=O)N[C@@H](Cc1ccccc1)C(=O)N[C@@H](CCCNC(=N)N)C(=O)N[C@H](Cc1c[nH]c2ccccc12)C(=O)N[C@@H](Cc1ccccc1)C(N)=O) [CTX-1541]", "Class": "Not fulfilled"}
{"Binder": "Ac-[Nle][dA]HFR[dW]-NH2 [CTX-1539]", "Class": "Not fulfilled"}
{"Binder": "Ac-[Nle][Aib]H[Phe(4-I)]R[dW]G-NH2 (SMILES CCCC[C@H](NC(C)=O)C(=O)NC(C)(C)C(=O)N[C@@H](Cc1c[nH]cn1)C(=O)N[C@@H](Cc1ccc(I)cc1)C(=O)N[C@@H](CCCNC(=N)N)C(=O)N[C@H](Cc1c[nH]c2ccccc12)C(=O)NCC(N)=O) [CTX-1545]", "Class": "Not fulfilled"}

Asked: Please indicate if the recorded MC3R selectivity (relative to MC4R) for PKcap1-G[Nle][dA]HFR[dW]DR[dF]G-OH [CTX-1153] meets or exceeds 30.
Given back: Not fulfilled

Asked: Please indicate if the recorded MC3R selectivity (relative to MC4R) for YVXGRFRWDRFG (Nle at 3; D-Trp at 8) [CTX-1549] meets or exceeds 30.
Given back: Fulfilled

Asked: Please indicate if the recorded MC3R selectivity (relative to MC4R) for YVXAHFRWDRFG (Nle at 3; D-Ala at 4; D-Trp at 8; C-terminal amide) [CTX-1118] meets or exceeds 30.
Given back: Fulfilled

Asked: Please indicate if the recorded MC3R selectivity (relative to MC4R) for YVXAHFRWDRFG (Nle at 3; D-Ala at 4; D-Phe at 6; D-Trp at 8) [CTX-1104] meets or exceeds 30.
Given back: Not fulfilled
